# credit: ChEMBL document CHEMBL2321812

experiment: Tmax in female ICR mouse at 5 mg/kg, po; format: ADME, organism-based; set-up: dose 5 mg/kg, route oral; conditions: in vivo
recorded endpoint: Tmax (h)

>>> df
                           molecular_string  measured_number
0  CS(=O)(=O)c1ccc(-c2nnc(/C=C/c3nnc(-c4ccc(C#N)cc4)o3)n2-c2ccccc2Cl)nc1                2

###

assay: AUC (0 to infinity) in female ICR mouse at 5 mg/kg, ip; format: ADME, organism-based; set-up: time infinity, dose 5 mg/kg, route intraperitoneal; details: plasma
recorded endpoint: AUC(0-inf) (ng·h/mL)

                           molecular_string  recorded_endpoint  measured_number
0  CS(=O)(=O)c1ccc(-c2nnc(/C=C/c3nnc(-c4ccc(C#N)cc4)o3)n2-c2ccccc2Cl)nc1         AUC(0-inf)            14100

###

assay: Mean residence time (0 to infinity) in male ICR mouse at 1 mg/kg, iv; assay type: ADME, organism-based; design: dose 1 mg/kg, route intravenous; conditions: in vivo
recorded endpoint: MRT inf

                           molecular_string  result
0  CS(=O)(=O)c1ccc(-c2nnc(/C=C/c3nnc(-c4ccc(C#N)cc4)o3)n2-c2ccccc2Cl)nc1   4.1 h

###

assay: Half life in female ICR mouse at 1 mg/kg, iv; type: ADME, organism-based; set-up: dose 1 mg/kg, route intravenous; conditions: in vivo
recorded endpoint: half-life (h)

                           molecular_string  measurement_units  measured_number
0  CS(=O)(=O)c1ccc(-c2nnc(/C=C/c3nnc(-c4ccc(C#N)cc4)o3)n2-c2ccccc2Cl)nc1                  h             3.46

###

experiment: AUC (0 to infinity) in female ICR mouse at 1 mg/kg, iv; format: ADME, organism-based; parameters: time infinity, dose 1 mg/kg, route intravenous; conditions: plasma
recorded endpoint: AUC(0-inf) (ng·h/mL)

>>> print(df.to_string())
                           molecular_string  measured_number
0  CS(=O)(=O)c1ccc(-c2nnc(/C=C/c3nnc(-c4ccc(C#N)cc4)o3)n2-c2ccccc2Cl)nc1             2300

###

experiment: AUC (0 to t) in female ICR mouse at 1 mg/kg, iv; format: ADME, organism-based; design: dose 1 mg/kg, route intravenous; conditions: plasma
recorded endpoint: AUC(0-t)

                           molecular_string  recorded_endpoint        result
0  CS(=O)(=O)c1ccc(-c2nnc(/C=C/c3nnc(-c4ccc(C#N)cc4)o3)n2-c2ccccc2Cl)nc1           AUC(0-t)  1850 ng·h/mL

###

test: AUC (0 to t) in female ICR mouse at 5 mg/kg, ip; type: ADME, organism-based; parameters: dose 5 mg/kg, route intraperitoneal; settings: plasma
recorded endpoint: AUC(0-t) (ng·h/mL)

In [3]: df
Out[3]:
                           molecular_string  measurement_units  measured_number
0  CS(=O)(=O)c1ccc(-c2nnc(/C=C/c3nnc(-c4ccc(C#N)cc4)o3)n2-c2ccccc2Cl)nc1            ng·h/mL            14100

###

target: Tankyrase 1/2 (Homo sapiens, UniProt Q9H2K2+O95271); experiment: Inhibition of TNKS1/2 in HEK293 cells assessed as inhibition of Wnt/beta-catenin pathway after 24 hrs by luciferase reporter gene assay; format: cell-based
# IC50 per record follows
recorded endpoint: IC50

>>> df
                           molecular_string  recorded_endpoint   result
0  COc1ccc(-n2c(NCc3nc(-c4ccc(C)cc4)no3)nnc2-c2ccncc2)cc1               IC50  > 10 µM
1  COc1ccc(-n2c(OCc3nc(-c4ccc(C)cc4)no3)nnc2-c2ccncc2)cc1               IC50  > 10 µM
2  Cc1ccc(-c2noc(CSc3ncc(-c4ccncc4)n3-c3ccccc3C)n2)cc1               IC50  > 10 µM
